target: Adenosine receptor A2a (Homo sapiens); assay: Binding affinity for human adenosine A2A receptor in CHO cells using [3H]CGS-21680
Sequence (P29274 whole entry): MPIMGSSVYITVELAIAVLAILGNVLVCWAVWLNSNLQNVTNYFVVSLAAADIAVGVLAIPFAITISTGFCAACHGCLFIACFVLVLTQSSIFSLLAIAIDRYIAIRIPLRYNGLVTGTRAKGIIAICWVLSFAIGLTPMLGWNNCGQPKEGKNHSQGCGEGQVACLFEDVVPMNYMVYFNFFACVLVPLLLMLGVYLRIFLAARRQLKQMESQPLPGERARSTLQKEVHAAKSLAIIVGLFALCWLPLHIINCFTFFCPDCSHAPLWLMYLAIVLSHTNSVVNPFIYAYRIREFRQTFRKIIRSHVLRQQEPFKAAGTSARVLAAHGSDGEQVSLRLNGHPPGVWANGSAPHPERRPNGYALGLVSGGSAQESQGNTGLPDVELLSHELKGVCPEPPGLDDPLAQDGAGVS
metric: pKi
One number for each entry, as −log10 of the molar value.

Data request: Value lookup for pKi; key = `CNC(=O)[C@H]1S[C@@H](n2cnc3c(NCc4cccc(I)c4)nc(Cl)nc32)[C@H](O)[C@@H]1O`
Data returned: 6.65

----------
molecular target: UniProt P25099
Sequence (P25099 whole entry): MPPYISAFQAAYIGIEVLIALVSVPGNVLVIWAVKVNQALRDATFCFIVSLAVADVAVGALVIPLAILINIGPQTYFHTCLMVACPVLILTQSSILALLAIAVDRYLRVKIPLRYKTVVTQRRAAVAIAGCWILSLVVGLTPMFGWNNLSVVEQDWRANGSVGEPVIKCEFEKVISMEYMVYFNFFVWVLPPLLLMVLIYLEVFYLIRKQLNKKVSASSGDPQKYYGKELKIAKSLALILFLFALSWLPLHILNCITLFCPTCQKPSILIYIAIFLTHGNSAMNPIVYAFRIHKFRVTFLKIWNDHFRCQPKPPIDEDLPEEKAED
metric: pKi
One number for each entry, as −log10 of the molar value.

Data request: Value lookup for pKi; key = `CNC(=O)[C@H]1S[C@@H](n2cnc3c(NCc4cccc(I)c4)nc(Cl)nc32)[C@H](O)[C@@H]1O`
Data returned: 6.85

src = ChEMBL document CHEMBL1145992
